Below, each entry is listed alongside its reported growth.
# Test system: SN12C renal
# experiment_summary: NCI-60 one-dose screen, 48 h (100 = growth as untreated, 0 = no growth, -100 = all killed)
# recorded_conditions: 10 µM unless noted
Compounds without any hit were thinned out: in the full panel of roughly 83,000, 20% have a hit.

compound: CSc1nc2sc3c(c2c(=O)n1-c1ccc([N+](=O)[O-])cc1)CCCCC3
readout_unit: %
growth: 88.3

compound: CN(C)CC(=O)Nc1ccc2ncnc(Nc3ccc(Oc4cccc(C(F)(F)F)c4)c(Cl)c3)c2c1
readout_unit: %
growth: 60

compound: N#Cc1c(NC(=O)c2ccccc2)sc2c1CCC(=O)C2
readout_unit: %
growth: 11.6

compound: COc1ccc(C(=O)Nc2cccc(C3CC(=O)c4c(cc(OC)c(OC)c4OC)O3)c2)cc1 (stereo not given)
readout_unit: %
growth: 31.2

compound: C/C(=N\NC(=O)c1ccccc1O)c1cccc(/C(C)=N/NC(=O)c2ccccc2O)n1
readout_unit: %
growth: 55

compound: N#Cc1nn(-c2cc(=O)[nH]c3ccc(Cl)cc23)c(N)c1C#N
readout_unit: %
growth: 104

compound: CC1(c2ccccc2O)NN=C(/N=C/c2cccc([N+](=O)[O-])c2)N1C(Cc1c[nH]c2ccccc12)C(=O)O (stereo not given)
readout_unit: %
growth: 94.2

compound: CC1=Nc2cnc(Nc3ccc(OCCN4CCCC4)cc3)nc2Nc2ccccc21
readout_unit: %
growth: 61.1

compound: Cc1noc(C)c1C(=O)OCc1coc2ccccc2c1=O
readout_unit: %
growth: 65.4

compound: COc1cc(CNS(=O)(=O)c2ccc(C)cc2)ccc1OCc1cn(-c2ccc(Br)cc2)nn1
readout_unit: %
growth: 105

// provenance: PubChem BioAssay (NCI)
